The origin of these recorded values is patent US10806726B2.

system: Wnt-responsive promoter driving firefly luciferase in SW480 cells; experiment: Wnt reporter (SP5 promoter-luciferase) screening assay in SW480 cells; format: cell-based; settings: Homo sapiens, 24-40 h, top concentration ten micromolar
pEC50: −log10 of the molar value.
REPORTED METRIC: pEC50

{"COMPOUND": "N#Cc1ccc(NC(=O)c2n[nH]c3ccc(-c4cncc(CN5CCCC5)c4)cc23)cn1 [compound 52]", "NUMERIC RESULT": 7.24}
{"COMPOUND": "CN1CCN(Cc2ccc(NC(=O)c3n[nH]c4ccc(-c5cccnc5)cc34)cn2)CC1 [compound 15]", "NUMERIC RESULT": 7.43}
{"COMPOUND": "CN(C)Cc1cncc(-c2ccc3[nH]nc(C(=O)Nc4ccc(C(F)(F)F)nc4)c3c2)c1 [compound 26]", "NUMERIC RESULT": 6.68}
{"COMPOUND": "O=C(NC1CCOCC1)c1n[nH]c2ccc(-c3cncc(CN4CCCCC4)c3)cc12 [compound 163]", "NUMERIC RESULT": 4.81}
{"COMPOUND": "CN1CCN(Cc2cncc(-c3ccc4[nH]nc(C(=O)Nc5cccnc5)c4c3)c2)CC1 [compound 61]", "NUMERIC RESULT": 6.62}
{"COMPOUND": "O=C(Nc1ccc(CN2CCCC2)nc1)c1n[nH]c2ccc(-c3cccnc3)cc12 [compound 8]", "NUMERIC RESULT": 6.89}
{"COMPOUND": "O=C(Nc1ccc(C(F)(F)F)nc1)c1n[nH]c2ccc(-c3cncc(F)c3)cc12 [compound 2]", "NUMERIC RESULT": 5.30}

----------
Recorded pEC50, one value per entry.
system: Wnt-responsive promoter driving firefly luciferase in SW480 cells; test: Wnt reporter (SP5 promoter-luciferase) screening assay in SW480 cells; type: cell-based; details: Homo sapiens, 24-40 h, top concentration ten micromolar
pEC50: −log10 of the molar value.

{"SMILES CODE": "O=C(NCc1cccnc1)c1n[nH]c2ccc(-c3cncc(CN4CCCCC4)c3)cc12", "TEST TARGET": "Wnt-responsive promoter driving firefly luciferase in SW480 cells", "pEC50": 6.07}
{"SMILES CODE": "O=C(Nc1cccnc1)c1n[nH]c2ccc(-c3cncc(CN4CCCCC4)c3)cc12", "TEST TARGET": "Wnt-responsive promoter driving firefly luciferase in SW480 cells", "pEC50": 7.82}
{"SMILES CODE": "N#Cc1ccc(NC(=O)c2n[nH]c3ccc(-c4cncc(CN5CCCCC5)c4)cc23)cn1", "TEST TARGET": "Wnt-responsive promoter driving firefly luciferase in SW480 cells", "pEC50": 7.80}
{"SMILES CODE": "O=C(Nc1cccnc1)c1n[nH]c2ccc(-c3cccc(CN4CCCC4)c3)cc12", "TEST TARGET": "Wnt-responsive promoter driving firefly luciferase in SW480 cells", "pEC50": 7.24}

----------
test system: Wnt-responsive promoter driving firefly luciferase in SW480 cells; assay: Wnt reporter (SP5 promoter-luciferase) screening assay in SW480 cells; assay type: cell-based; conditions: Homo sapiens, 24-40 h, top concentration ten micromolar
pEC50: −log10 of the molar value.
Recorded pEC50, one value per entry.

{"SMILES CODE": "O=C(Nc1ccc(C(=O)N2CCCC2)nc1)c1n[nH]c2ccc(-c3cncc(CN4CCCCC4)c3)cc12", "TEST TARGET": "Wnt-responsive promoter driving firefly luciferase in SW480 cells", "pEC50": 7.52}
{"SMILES CODE": "COc1ccc(NC(=O)c2n[nH]c3ccc(-c4cncc(CN5CCCCC5)c4)cc23)cn1", "TEST TARGET": "Wnt-responsive promoter driving firefly luciferase in SW480 cells", "pEC50": 7.60}
{"SMILES CODE": "O=C(Nc1ccc(O)nc1)c1n[nH]c2ccc(-c3cncc(CN4CCCCC4)c3)cc12", "TEST TARGET": "Wnt-responsive promoter driving firefly luciferase in SW480 cells", "pEC50": 6.53}
{"SMILES CODE": "Nc1cncc(-c2ccc3[nH]nc(C(=O)Nc4ccc(N5CCCCC5)nc4)c3c2)c1", "TEST TARGET": "Wnt-responsive promoter driving firefly luciferase in SW480 cells", "pEC50": 7.46}
{"SMILES CODE": "CN(C)Cc1cncc(NC(=O)c2n[nH]c3ccc(-c4cccnc4)cc23)c1", "TEST TARGET": "Wnt-responsive promoter driving firefly luciferase in SW480 cells", "pEC50": 6.96}

----------
test: Pharmacokinetics after single topical application in rats (plasma, tendon, skin); format: in vivo, rat; conditions: male, Sprague Dawley, rat, tendon, topical or ocular, 10 mg/mL, Tendon; Group 2, 10 mg/mL, 1% BA, single topical
REPORTED METRIC: Cmax (ng/g)

{"SMILES CODE": "COc1ccc(NC(=O)c2n[nH]c3ccc(-c4cncc(CN5CCCCC5)c4)cc23)cn1", "NUMERIC RESULT": 1930}

----------
test: Pharmacokinetics after single topical application in rats (plasma, tendon, skin); type: in vivo, rat; conditions: male, Sprague Dawley, rat, skin, topical; 24 hours post-dose; Group 2, 10 mg/mL containing BA; above quantitation limit, estimated
REPORTED METRIC: concentration at 24 h (ng/g)

{"SMILES CODE": "COc1ccc(NC(=O)c2n[nH]c3ccc(-c4cncc(CN5CCCCC5)c4)cc23)cn1", "NUMERIC RESULT": 113000}

----------
Recorded pEC50, one value per entry.
test system: Wnt-responsive promoter driving firefly luciferase in SW480 cells; assay: Wnt reporter (SP5 promoter-luciferase) screening assay in SW480 cells; type: cell-based; conditions: Homo sapiens, 24-40 h, top concentration ten micromolar
pEC50: −log10 of the molar value.

{"SMILES CODE": "O=C(Nc1cnccc1NC(=O)C1CC1)c1n[nH]c2ccc(-c3cccnc3)cc12", "QUALIFIER OPERATOR": "=", "pEC50": 7.15}
{"SMILES CODE": "O=C(Nc1cccnc1)c1n[nH]c2ccc(-c3cncc(CN4CCCC4)c3)cc12", "QUALIFIER OPERATOR": "=", "pEC50": 7.20}
{"SMILES CODE": "O=C(Nc1ccc2c(c1)OCO2)c1n[nH]c2ccc(-c3cncc(CN4CCCCC4)c3)cc12", "QUALIFIER OPERATOR": "=", "pEC50": 6.62}
{"SMILES CODE": "Cn1nc(NC(=O)c2n[nH]c3ccc(-c4cccnc4)cc23)cc1C(F)(F)F", "QUALIFIER OPERATOR": "=", "pEC50": 5.95}
{"SMILES CODE": "O=C(Nc1ccc(N2CCC(O)CC2)nc1)c1n[nH]c2ccc(-c3cncc(CN4CCCCC4)c3)cc12", "QUALIFIER OPERATOR": "=", "pEC50": 7.31}
{"SMILES CODE": "O=C(Nc1ccc(Oc2ccccc2F)nc1)c1n[nH]c2ccc(-c3cccnc3)cc12", "QUALIFIER OPERATOR": "=", "pEC50": 6.91}
{"SMILES CODE": "CN1CCN(Cc2cc(F)cc(-c3ccc4[nH]nc(C(=O)Nc5cnccc5C(F)(F)F)c4c3)c2)CC1", "QUALIFIER OPERATOR": "≤", "pEC50": 5.00}
{"SMILES CODE": "CN(C)C(=O)Nc1cncc(-c2ccc3[nH]nc(C(=O)Nc4cccnc4)c3c2)c1", "QUALIFIER OPERATOR": "=", "pEC50": 6.76}
{"SMILES CODE": "O=C(Nc1ccc(N2CCCC2)nc1)c1n[nH]c2ccc(-c3cncc(N4CCOCC4)c3)cc12", "QUALIFIER OPERATOR": "=", "pEC50": 6.67}
{"SMILES CODE": "Nc1ncc(NC(=O)c2n[nH]c3ccc(-c4cncc(CN5CCCCC5)c4)cc23)cn1", "QUALIFIER OPERATOR": "=", "pEC50": 7.52}
{"SMILES CODE": "CCOc1ccc(NC(=O)c2n[nH]c3ccc(-c4cncc(CN5CCCCC5)c4)cc23)cn1", "QUALIFIER OPERATOR": "=", "pEC50": 6.96}
{"SMILES CODE": "CN(C)Cc1cncc(NC(=O)c2n[nH]c3ccc(-c4cncc(CN5CCCCC5)c4)cc23)c1", "QUALIFIER OPERATOR": "=", "pEC50": 7.18}
{"SMILES CODE": "O=C(Nc1cccnc1)c1n[nH]c2ccc(-c3cccnc3)cc12", "QUALIFIER OPERATOR": "=", "pEC50": 6.80}
{"SMILES CODE": "O=C(Nc1cccnc1)c1n[nH]c2ccc(-c3cncc(C(F)(F)F)c3)cc12", "QUALIFIER OPERATOR": "≤", "pEC50": 5.00}
{"SMILES CODE": "CN1CCN(c2ncccc2NC(=O)c2n[nH]c3ccc(-c4cccnc4)cc23)CC1", "QUALIFIER OPERATOR": "≤", "pEC50": 5.00}
